Ref: ChEMBL document CHEMBL2331425

Assay: Clearance in Sprague-Dawley rat at 1 mg/kg, iv
Format: ADME, organism-based
Design: dose 1 mg/kg, route intravenous
Details: in vivo
Class true (1): clearance at least 60 mL/min/kg. Class false (0): clearance below 60 mL/min/kg.

molecule: CC1=C(C(=O)N2CCN(c3ccc(F)cc3)CC2)[C@@H](c2ccc(Cl)c(Cl)c2)n2nccc2N1
assigned-category: true (1)
--
molecule: CC1=C(c2nccn2C(C)C)[C@@H](c2ccc(Cl)c(Cl)c2)n2nc(C(F)(F)F)cc2N1
assigned-category: true (1)
--
molecule: CCOCCn1ccnc1C1=C(C)Nc2cc(C(F)(F)F)nn2[C@@H]1c1ccc(Cl)c(Cl)c1
assigned-category: false (0)

Determine whether measured clearance meets or exceeds 60 mL/min/kg for CC1=C(c2ncnn2C2CCC2)[C@@H](c2ccc(Cl)c(Cl)c2)n2nc(C)cc2N1
true (1)

Then what about the molecule CC1=C(c2ncnn2C2CCC(C(F)(F)F)CC2)[C@@H](c2ccc(Cl)c(Cl)c2)n2nc(C(F)(F)F)cc2N1 (single isomer, unassigned; isomer 1) ?
false (0)

====

Target: Nuclear receptor subfamily 1 group I member 2 (Homo sapiens, UniProt O75469)
Sequence (O75469 whole entry): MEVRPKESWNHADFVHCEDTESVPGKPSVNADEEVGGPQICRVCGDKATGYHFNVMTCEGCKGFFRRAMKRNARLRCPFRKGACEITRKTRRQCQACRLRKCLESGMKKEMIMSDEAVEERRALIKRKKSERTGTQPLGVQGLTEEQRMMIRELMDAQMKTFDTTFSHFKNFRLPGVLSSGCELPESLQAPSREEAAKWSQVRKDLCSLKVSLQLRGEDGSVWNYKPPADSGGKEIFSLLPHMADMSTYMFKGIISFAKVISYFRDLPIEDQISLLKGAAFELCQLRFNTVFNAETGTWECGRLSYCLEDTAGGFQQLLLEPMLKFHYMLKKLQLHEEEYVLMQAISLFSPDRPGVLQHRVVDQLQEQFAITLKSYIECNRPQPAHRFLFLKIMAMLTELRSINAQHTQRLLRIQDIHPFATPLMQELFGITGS
Test: Transactivation of PXR (unknown origin)
test-readout: log10 EC20 (log10 of the value in nM)
Each number you see is log10 of EC20, and the unit inside the log is nM.

Would you please look over these solved cases?
molecule: CCOc1cccc(-n2ncnc2C2=C(C)Nc3cc(C(F)(F)F)nn3[C@@H]2c2ccc(Cl)c(Cl)c2)n1
log10 EC20: 3.04

molecule: CCn1ccnc1C1=C(C)Nc2cc(C(F)(F)F)nn2[C@@H]1c1ccc(Cl)c(Cl)c1
log10 EC20: 2.04

molecule: CC1=C(c2ncnn2C2CCC(C(F)(F)F)CC2)[C@@H](c2ccc(Cl)c(Cl)c2)n2nc(C(F)(F)F)cc2N1 (single isomer, unassigned; isomer 1)
log10 EC20: 3.70

Batch of 5 molecules: report log10 EC20 for each.
1. CCOCCn1ccnc1C1=C(C)Nc2cc(C(F)(F)F)nn2[C@@H]1c1ccc(Cl)c(Cl)c1
2. CC1=C(c2ncnn2-c2cccc(F)n2)[C@@H](c2ccc(Cl)c(Cl)c2)n2nc(C(F)(F)F)cc2N1
3. CC1=C(c2nccn2C(C)C)[C@@H](c2ccc(Cl)c(Cl)c2)n2nc(C(F)(F)F)cc2N1
4. CC1=C(c2ncnn2-c2cccc(C(F)(F)F)n2)[C@@H](c2ccc(Cl)c(Cl)c2)n2nc(C(F)(F)F)cc2N1
5. CC1=C(c2ncnn2C2CCC(C(F)(F)F)CC2)[C@@H](c2ccc(Cl)c(Cl)c2)n2nc(C(F)(F)F)cc2N1 (single isomer, unassigned; isomer 2)

1: 2.81; 2: 1.85; 3: 2.04; 4: 2.15; 5: 3.56

====

Target: Potassium voltage-gated channel subfamily A member 5 (Homo sapiens, UniProt P22460)
Sequence (P22460 whole entry): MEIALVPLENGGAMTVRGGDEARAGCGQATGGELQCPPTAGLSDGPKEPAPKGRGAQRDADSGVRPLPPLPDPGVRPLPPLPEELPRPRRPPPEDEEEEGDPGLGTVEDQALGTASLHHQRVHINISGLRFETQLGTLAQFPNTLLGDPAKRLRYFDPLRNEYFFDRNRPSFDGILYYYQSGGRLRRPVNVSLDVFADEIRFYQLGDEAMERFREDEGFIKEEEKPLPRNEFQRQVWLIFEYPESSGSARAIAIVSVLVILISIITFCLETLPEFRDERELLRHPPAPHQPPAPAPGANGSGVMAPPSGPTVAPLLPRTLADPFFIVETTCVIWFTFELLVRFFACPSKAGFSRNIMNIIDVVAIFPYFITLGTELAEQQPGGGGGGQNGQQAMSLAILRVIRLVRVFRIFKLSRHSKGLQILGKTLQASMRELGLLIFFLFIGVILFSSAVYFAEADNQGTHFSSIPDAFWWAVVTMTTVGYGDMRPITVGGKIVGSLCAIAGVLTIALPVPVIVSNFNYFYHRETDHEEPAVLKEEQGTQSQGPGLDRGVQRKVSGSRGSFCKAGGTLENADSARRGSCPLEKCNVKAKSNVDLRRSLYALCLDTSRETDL
Assay: Antagonist activity at human Kv1.5 expressed in mouse L929 cells assessed as inhibition of delayed rectifier repolarization current by patch clamp assay
Provide the reported pIC50 of each item.
Answers are plain numbers, as −log10 of the molar value.

Would you please look over these solved cases?
compound: CC1=C(c2ncnn2C2CCC2)[C@@H](c2ccc(Cl)c(Cl)c2)n2nc(C)cc2N1
pIC50: 7.03

compound: CCCn1ncnc1C1=C(C)Nc2ccnn2[C@@H]1c1ccc(Cl)c(Cl)c1
pIC50: 6.99

compound: CC1=C(c2ncnn2-c2cccc(F)n2)[C@@H](c2ccc(Cl)c(Cl)c2)n2nc(C(F)(F)F)cc2N1
pIC50: 6.59

compound: CCOCCn1ccnc1C1=C(C)Nc2cc(C(F)(F)F)nn2[C@@H]1c1ccc(Cl)c(Cl)c1
pIC50: 7.01

compound: CC1=C(c2ncnn2-c2cccc(C(F)(F)F)n2)[C@@H](c2ccc(Cl)c(Cl)c2)n2nc(C(F)(F)F)cc2N1
pIC50: 7.02

compound: CC1=C(c2ncnn2C2CCC2)[C@@H](c2ccc(Cl)c(Cl)c2)n2nccc2N1
pIC50: 7.32

Batch of 8 compounds: report pIC50 for each.
1. CC1=C(c2ncnn2C2CCCCC2)[C@@H](c2ccc(Cl)c(Cl)c2)n2nccc2N1
2. CC1=C(c2ncn(-c3ccccc3C)n2)[C@@H](c2ccc(Cl)c(Cl)c2)n2nc(C)cc2N1
3. CC1=C(c2ncnn2-c2ccc(C)cc2)[C@@H](c2ccc(Cl)c(Cl)c2)n2nccc2N1
4. CC1=C(c2ncnn2-c2cccc(Cl)n2)[C@@H](c2ccc(Cl)c(Cl)c2)n2nc(C(F)(F)F)cc2N1
5. CC1=C(c2ncnn2CC(F)(F)F)[C@@H](c2ccc(Cl)c(Cl)c2)n2nccc2N1
6. CCn1ccnc1C1=C(C)Nc2cc(C(F)(F)F)nn2[C@@H]1c1ccc(Cl)c(Cl)c1
7. CCn1ncnc1C1=C(C)Nc2ccnn2[C@@H]1c1ccc(Cl)c(Cl)c1
8. CC1=C(c2ncnn2C2CCC(C(F)(F)F)CC2)[C@@H](c2ccc(Cl)c(Cl)c2)n2nc(C(F)(F)F)cc2N1 (single isomer, unassigned; isomer 1)

1: 7.23; 2: 6.14; 3: 7.10; 4: 6.72; 5: 6.70; 6: 6.89; 7: 6.72; 8: 6.88

Batch of 4 compounds: report pIC50 for each.
1. CC1=C(c2ncnn2C2CCC2)[C@@H](c2ccc(Cl)c(Cl)c2)n2nc(C(F)(F)F)cc2N1
2. CC1=C(c2ncnn2C2CCCCC2)[C@@H](c2ccc(Cl)c(Cl)c2)n2nc(C)cc2N1
3. CC1=C(c2ncnn2-c2ccc(C)cn2)[C@@H](c2ccc(Cl)c(Cl)c2)n2nc(C(F)(F)F)cc2N1
4. CC1=C(c2ncnn2C2CCCC2)[C@@H](c2ccc(Cl)c(Cl)c2)n2nccc2N1

[6.78, 6.90, 6.41, 7.43]

====

Biological target: Potassium voltage-gated channel subfamily A member 5 (Homo sapiens)
Experiment: Antagonist activity at human Kv1.5 expressed in mouse L929 cells assessed as inhibition of delayed rectifier repolarization current by patch clamp assay
# label = class 1 if IC50 < 0.1 µM else class 0

Examples from the recorded data:
molecule: COc1ccccc1-n1ncnc1C1=C(C)Nc2ccnn2[C@@H]1c1ccc(Cl)c(Cl)c1
assigned-category: class 0
//
molecule: CC1=C(c2ncnn2CC2CC2)[C@@H](c2ccc(Cl)c(Cl)c2)n2nccc2N1
assigned-category: class 0
//
molecule: CC1=C(c2ncnn2C(C)(C)C)[C@@H](c2ccc(Cl)c(Cl)c2)n2nccc2N1
assigned-category: class 0

Does CCOc1cccc(-n2ncnc2C2=C(C)Nc3cc(C(F)(F)F)nn3[C@@H]2c2ccc(Cl)c(Cl)c2)n1 have IC50 strictly under 0.1 µM?
class 0

Then what about the molecule CC1=C(c2ncnn2C2CCC2)[C@@H](c2ccc(Cl)c(Cl)c2)n2nc(C(C)(C)C)cc2N1 ?
class 0

Then what about the molecule COc1cccc(-n2ncnc2C2=C(C)Nc3cc(C(F)(F)F)nn3[C@@H]2c2ccc(Cl)c(Cl)c2)n1 ?
class 1

Then what about the molecule CC1=C(c2ncnn2CCC(F)(F)F)[C@@H](c2ccc(Cl)c(Cl)c2)n2nccc2N1 ?
class 0

Then what about the molecule CC1=C(c2ncnn2-c2cccc(F)c2)[C@@H](c2ccc(Cl)c(Cl)c2)n2nccc2N1 ?
class 1

Then what about the molecule CC1=C(c2ncnn2C2CCC(C(F)(F)F)CC2)[C@@H](c2ccc(Cl)c(Cl)c2)n2nc(C(F)(F)F)cc2N1 (single isomer, unassigned; isomer 2) ?
class 0

Then what about the molecule CC1=C(c2ncnn2-c2cc(C)ccn2)[C@@H](c2ccc(Cl)c(Cl)c2)n2nc(C(F)(F)F)cc2N1 ?
class 0

Then what about the molecule CC1=C(c2ncnn2C(C)C)[C@@H](c2ccc(Cl)c(Cl)c2)n2nccc2N1 ?
class 1

Then what about the molecule CC1=C(c2ncnn2Cc2ccccc2)[C@@H](c2ccc(Cl)c(Cl)c2)n2nccc2N1 ?
class 0

====

Target: Potassium voltage-gated channel subfamily A member 5 (Homo sapiens, UniProt P22460)
Assay: Antagonist activity at human Kv1.5 expressed in mouse L929 cells assessed as inhibition of delayed rectifier repolarization current at 0.3 uM by patch clamp assay relative to control
Format: cell-based
Provide the reported inhibition of each item.
Answers are plain numbers, in %.

mol-smiles: CC1=C(c2ncnn2-c2ccc(C)cc2)[C@@H](c2ccc(Cl)c(Cl)c2)n2nc(C)cc2N1
test-readout: inhibition
units-symbol: %
test-value: 25

Batch of 3 compounds: report inhibition for each.
1. COCc1cc2n(n1)[C@H](c1ccc(Cl)c(Cl)c1)C(c1ncnn1C1CCC1)=C(C)N2
2. COc1cccc(-n2cnc(C3=C(C)Nc4cc(C)nn4[C@@H]3c3ccc(Cl)c(Cl)c3)n2)c1
3. CC1=C(c2ncn(-c3ccccc3F)n2)[C@@H](c2ccc(Cl)c(Cl)c2)n2nc(C)cc2N1

[25, 14, 23]

Batch of 5 compounds: report inhibition for each.
1. COc1ccc(-n2cnc(C3=C(C)Nc4cc(C)nn4[C@@H]3c3ccc(Cl)c(Cl)c3)n2)cc1
2. CC1=C(c2ncnn2-c2ccccn2)[C@@H](c2ccc(Cl)c(Cl)c2)n2nc(C(F)(F)F)cc2N1
3. CC1=C(c2ncnn2CCO)[C@@H](c2ccc(Cl)c(Cl)c2)n2nccc2N1
4. COc1ccccc1-n1cnc(C2=C(C)Nc3cc(C)nn3[C@@H]2c2ccc(Cl)c(Cl)c2)n1
5. CC1=C(c2ncn(-c3ccc(C)cc3)n2)[C@@H](c2ccc(Cl)c(Cl)c2)n2nc(C)cc2N1

1: 5; 2: 11; 3: 6; 4: 4; 5: 14

Given the entry CC1=C(c2ncn[nH]2)[C@@H](c2ccc(Cl)c(Cl)c2)n2nccc2N1 , report its measured inhibition.
8
